test system: NHDF (normal human dermal fibroblasts); test: WST-1 proliferation assay, NHDF; assay type: cell-based; settings: Homo sapiens, NHDF, normal cells, 72 h exposure
ASSAY READOUT: IC50

Request: Look up and report measured IC50 for this entry: C[n+]1cc2c(c3ccccc31)Nc1c(OCc3cn(Cc4ccccc4)nn3)cccc1S2
Response: 30.5 µM

Request: Given Nc1ccc(OCc2cn(Cc3ccccc3)nn2)cc1 , respond with its IC50.
Response: > 100 µM

Request: Using known records, supply IC50 for C[n+]1cc2c(c3ccccc31)Nc1ccc(OCc3cn(Cc4ccccc4)nn3)cc1S2
Response: > 100 µM

Request: Entry Nc1ccc(OCc2cn(Cc3ccc([N+](=O)[O-])cc3)nn2)cc1 needs its IC50 filled in; supply it.
Response: > 100 µM

Request: Give me measured IC50, please, for this compound: C[n+]1cc2c(c3ccccc31)Nc1ccc(OCc3cn(CSc4ccccc4)nn3)cc1S2
Response: 28.7 µM

Request: Supply measured IC50 of Nc1cccc(OCc2cn(Cc3ccc([N+](=O)[O-])cc3)nn2)c1 in your reply.
Response: > 100 µM

Request: Check the records and state IC50 for C[n+]1cc2c(c3ccccc31)Nc1cc(OCc3cn(Cc4ccc([N+](=O)[O-])cc4)nn3)ccc1S2
Response: > 100 µM

Request: Report IC50, nothing else, for this compound: C[n+]1cc2c(c3ccccc31)Nc1c(OCc3cn(CSc4ccccc4)nn3)cccc1S2
Response: > 100 µM

Request: Report IC50 for C[n+]1cc2c(c3ccccc31)Nc1cc(OCc3cn(-c4ccc(Cl)cc4)nn3)ccc1S2
Response: > 100 µM
